measured-on: Amyloid-beta precursor protein (Homo sapiens)
Sequence (P05067 whole entry): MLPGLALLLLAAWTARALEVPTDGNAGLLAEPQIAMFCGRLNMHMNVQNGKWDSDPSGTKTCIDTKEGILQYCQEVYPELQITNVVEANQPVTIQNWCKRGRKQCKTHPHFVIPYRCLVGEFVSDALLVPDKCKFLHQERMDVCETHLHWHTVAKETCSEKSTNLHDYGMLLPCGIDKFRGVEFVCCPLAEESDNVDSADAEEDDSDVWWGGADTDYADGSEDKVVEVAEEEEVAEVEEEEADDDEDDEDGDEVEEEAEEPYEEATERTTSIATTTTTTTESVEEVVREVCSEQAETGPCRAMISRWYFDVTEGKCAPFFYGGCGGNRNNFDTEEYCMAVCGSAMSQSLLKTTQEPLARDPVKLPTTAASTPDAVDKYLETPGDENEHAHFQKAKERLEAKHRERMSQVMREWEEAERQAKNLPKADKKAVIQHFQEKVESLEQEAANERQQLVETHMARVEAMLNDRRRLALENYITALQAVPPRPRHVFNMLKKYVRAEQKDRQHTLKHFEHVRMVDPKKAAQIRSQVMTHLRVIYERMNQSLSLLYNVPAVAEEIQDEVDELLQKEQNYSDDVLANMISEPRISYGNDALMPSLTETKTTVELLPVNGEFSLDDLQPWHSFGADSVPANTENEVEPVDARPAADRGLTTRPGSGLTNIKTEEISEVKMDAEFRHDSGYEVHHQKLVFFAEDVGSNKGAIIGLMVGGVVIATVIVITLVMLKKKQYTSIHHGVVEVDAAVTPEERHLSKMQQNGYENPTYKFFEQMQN
measurement-notes: Inhibition of amyloid beta (1 to 42) (unknown origin) aggregation at 100 uM incubated for 48 hrs by ThioflavinT staining based fluorescence assay relative to control
recorded-endpoint: inhibition

Before answering, review these 3 worked examples.
O=C(Cc1ccccc1[N+](=O)[O-])NCc1cn(-c2cc3ccccc3oc2=O)nn1 :: > 50%
COc1cc(C(=O)OCc2cn(-c3ccc(Oc4ccccc4)cc3)nn2)ccc1O :: > 50%
O=C(OCc1cn(-c2ccc(Oc3ccccc3)cc2)nn1)c1ccccc1 :: > 50%

Give inhibition for each listed item.
1. COc1cc(C(=O)NCc2cn(-c3cc4ccccc4oc3=O)nn2)ccc1O
2. O=C(Cc1ccccc1[N+](=O)[O-])OCc1cn(-c2cc3ccccc3oc2=O)nn1
3. O=C(NCc1cn(-c2ccc(Oc3ccccc3)cc2)nn1)c1ccccc1
4. O=C(Cc1ccccc1[N+](=O)[O-])OCc1cn(-c2ccc(Oc3ccccc3)cc2)nn1
5. O=C(OCc1cn(-c2cc3ccccc3oc2=O)nn1)c1ccccc1
6. COc1cc(C(=O)NCc2cn(-c3ccc(Oc4ccccc4)cc3)nn2)ccc1O
7. O=C(NCc1cn(-c2cc3ccccc3oc2=O)nn1)c1ccccc1O

A)
["< 50%", "> 50%", "< 50%", "> 50%", "< 50%", "> 50%", "< 50%"]

---

measured-on: UniProtKB P05067
measurement-notes: Inhibition of amyloid beta (1 to 42) (unknown origin) aggregation incubated for 48 hrs by ThioflavinT staining based fluorescence assay
recorded-endpoint: IC50 (µM)
Give bare numbers, in µM.

// worked examples, IC50 included
O=C(OCc1cn(-c2ccc(Oc3ccccc3)cc2)nn1)c1ccccc1 :: 4.73
O=C(Cc1ccccc1[N+](=O)[O-])NCc1cn(-c2ccc(Oc3ccccc3)cc2)nn1 :: 69.2
COc1cc(C(=O)NCc2cn(-c3ccc(Oc4ccccc4)cc3)nn2)ccc1O :: 1.15
COc1cc(C(=O)OCc2cn(-c3ccc(Oc4ccccc4)cc3)nn2)ccc1O :: 0.003
COc1cc(/C=C/C(=O)OCc2cn(-c3ccc(Oc4ccccc4)cc3)nn2)ccc1O :: 14.1
COc1cc(/C=C/C(=O)OCc2cn(-c3cc4ccccc4oc3=O)nn2)ccc1O :: 0.008
O=C(Cc1ccccc1[N+](=O)[O-])OCc1cn(-c2ccc(Oc3ccccc3)cc2)nn1 :: 36.7
O=C(Cc1ccccc1[N+](=O)[O-])NCc1cn(-c2cc3ccccc3oc2=O)nn1 :: 11.6
O=C(Cc1ccccc1[N+](=O)[O-])OCc1cn(-c2cc3ccccc3oc2=O)nn1 :: 17.7

Lab note: COc1cc(/C=C/C(=O)NCc2cn(-c3ccc(Oc4ccccc4)cc3)nn2)ccc1O gave IC50 of 0.04

---

measurement-notes: Octanol/water partition coefficient, log P of the compound incubated for 2 hrs under shaking condition by HPLC analysis
Format: physicochemical
Note to self: values exactly at 3 are rule met. So logP at 2 h at or above 3 is rule met, below is rule not met.

COc1cc(/C=C/C(=O)OCc2cn(-c3cc4ccccc4oc3=O)nn2)ccc1O :: rule not met
O=C(NCc1cn(-c2ccc(Oc3ccccc3)cc2)nn1)c1ccccc1 :: rule met
O=C(Cc1ccccc1[N+](=O)[O-])NCc1cn(-c2cc3ccccc3oc2=O)nn1 :: rule not met
O=C(OCc1cn(-c2cc3ccccc3oc2=O)nn1)c1ccccc1 :: rule not met

Q) Confirm if logP at 2 h reported for the compound O=C(Cc1ccccc1[N+](=O)[O-])OCc1cn(-c2ccc(Oc3ccccc3)cc2)nn1 is 3 or above.
A) rule met

---

measurement-notes: Octanol/water partition coefficient, log P of the compound incubated for 2 hrs under shaking condition by HPLC analysis
Assay type: physicochemical
recorded-endpoint: logP at 2 h
Give bare numbers.

Solved cases (3 shown):
O=C(OCc1cn(-c2ccc(Oc3ccccc3)cc2)nn1)c1ccccc1 :: 5.19
O=C(Cc1ccccc1[N+](=O)[O-])OCc1cn(-c2cc3ccccc3oc2=O)nn1 :: 2.41
COc1cc(C(=O)NCc2cn(-c3ccc(Oc4ccccc4)cc3)nn2)ccc1O :: 4.26

Next compound, please.
The compound listed as O=C(OCc1cn(-c2cc3ccccc3oc2=O)nn1)c1ccccc1O has a reported logP at 2 h of 2.65

---

measurement-notes: Octanol/water partition coefficient, log P of the compound incubated for 2 hrs under shaking condition by HPLC analysis
Type: physicochemical
For each entry below, report its logP at 2 h value.
Give bare numbers.

Some entries whose results are on file:
COc1cc(C(=O)NCc2cn(-c3cc4ccccc4oc3=O)nn2)ccc1O :: 1.95
COc1cc(/C=C/C(=O)NCc2cn(-c3ccc(Oc4ccccc4)cc3)nn2)ccc1O :: 4.44
COc1cc(C(=O)OCc2cn(-c3ccc(Oc4ccccc4)cc3)nn2)ccc1O :: 4.47

// each compound listed below needs its logP at 2 h
1. O=C(Cc1ccccc1[N+](=O)[O-])NCc1cn(-c2ccc(Oc3ccccc3)cc2)nn1
2. O=C(OCc1cn(-c2ccc(Oc3ccccc3)cc2)nn1)c1ccccc1O
3. COc1cc(C(=O)OCc2cn(-c3cc4ccccc4oc3=O)nn2)ccc1O
4. COc1cc(/C=C/C(=O)NCc2cn(-c3cc4ccccc4oc3=O)nn2)ccc1O
5. COc1cc(/C=C/C(=O)OCc2cn(-c3ccc(Oc4ccccc4)cc3)nn2)ccc1O
6. O=C(NCc1cn(-c2cc3ccccc3oc2=O)nn1)c1ccccc1
7. O=C(NCc1cn(-c2cc3ccccc3oc2=O)nn1)c1ccccc1O

A)
1. 3.76
2. 5.18
3. 2.61
4. 2.65
5. 4.92
6. 2.25
7. 2.02

---

measured-on: UniProt:P05067
measurement-notes: Inhibition of amyloid beta (1 to 42) (unknown origin) aggregation at 100 uM incubated for 48 hrs by ThioflavinT staining based fluorescence assay relative to control
recorded-endpoint: inhibition

In the examples that follow, each entry is paired with its recorded inhibition.
COc1cc(/C=C/C(=O)NCc2cn(-c3ccc(Oc4ccccc4)cc3)nn2)ccc1O :: > 50%
O=C(NCc1cn(-c2ccc(Oc3ccccc3)cc2)nn1)c1ccccc1O :: < 50%
COc1cc(/C=C/C(=O)CC(=O)/C=C/c2ccc(O)c(OC)c2)ccc1O :: > 50%
O=C(OCc1cn(-c2ccc(Oc3ccccc3)cc2)nn1)c1ccccc1O :: < 50%
O=C(NCc1cn(-c2cc3ccccc3oc2=O)nn1)c1ccccc1 :: < 50%

Could I get inhibition for every one of these entries?
1. COc1cc(/C=C/C(=O)OCc2cn(-c3ccc(Oc4ccccc4)cc3)nn2)ccc1O
2. COc1cc(/C=C/C(=O)OCc2cn(-c3cc4ccccc4oc3=O)nn2)ccc1O
3. COc1cc(C(=O)OCc2cn(-c3cc4ccccc4oc3=O)nn2)ccc1O
4. COc1cc(/C=C/C(=O)NCc2cn(-c3cc4ccccc4oc3=O)nn2)ccc1O
5. O=C(OCc1cn(-c2cc3ccccc3oc2=O)nn1)c1ccccc1O
6. O=C(Cc1ccccc1[N+](=O)[O-])NCc1cn(-c2ccc(Oc3ccccc3)cc2)nn1

A)
> 50%
> 50%
< 50%
< 50%
< 50%
> 50%
